Provide the reported kon of each item.
# Experimental System: recombinant murine VEGF164 (mouse) (UniProt Q00731)
# Measurement Notes: Biacore SPR, VEGF immobilized, pH 5
Numbers only, in M⁻¹ s⁻¹.

Below, 4 binders whose answers are already recorded.
Binder | kon (M⁻¹ s⁻¹)
578minmax (scFv, also called ESBA903; 903) scFv: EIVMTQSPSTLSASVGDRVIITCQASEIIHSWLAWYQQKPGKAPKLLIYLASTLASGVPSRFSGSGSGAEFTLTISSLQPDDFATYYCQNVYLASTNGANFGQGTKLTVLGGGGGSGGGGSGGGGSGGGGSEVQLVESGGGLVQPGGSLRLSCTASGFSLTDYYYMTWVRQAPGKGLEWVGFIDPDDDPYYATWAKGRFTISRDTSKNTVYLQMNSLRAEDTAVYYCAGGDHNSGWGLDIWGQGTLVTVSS | 1.14e+06
567-min (scFv, also called Protein Nr; 884) scFv: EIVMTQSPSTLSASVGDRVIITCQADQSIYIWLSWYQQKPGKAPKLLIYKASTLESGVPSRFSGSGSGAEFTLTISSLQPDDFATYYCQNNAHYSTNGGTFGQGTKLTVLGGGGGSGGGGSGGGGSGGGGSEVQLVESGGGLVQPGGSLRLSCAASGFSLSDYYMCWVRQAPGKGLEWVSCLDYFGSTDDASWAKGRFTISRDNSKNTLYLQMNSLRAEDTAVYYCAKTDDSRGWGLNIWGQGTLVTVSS | 2.06e+06
511-min (scFv, VL and VH tied by name; also called Protein Nr) scFv: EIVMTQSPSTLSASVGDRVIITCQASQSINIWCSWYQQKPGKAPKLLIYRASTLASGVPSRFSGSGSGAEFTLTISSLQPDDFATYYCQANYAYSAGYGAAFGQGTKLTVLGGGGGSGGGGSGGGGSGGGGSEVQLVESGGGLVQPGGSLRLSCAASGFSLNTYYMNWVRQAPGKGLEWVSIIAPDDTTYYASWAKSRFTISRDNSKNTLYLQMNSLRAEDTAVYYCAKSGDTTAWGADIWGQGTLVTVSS | 625000
578min_max T84N_V89L_DHP (scFv) scFv: EIVMTQSPSTLSASVGDRVIITCQASEIIHSWLAWYQQKPGKAPKLLIYLASTLASGVPSRFSGSGSGAEFTLTISSLQPDDFATYYCQNVYLASTNGANFGQGTKLTVLGGGGGSGGGGSGGGGSGGGGSEVQLVESGGGSVQPGGSLRLSCTASGFSLTDYYYMTWVRQAPGKGLEWVGFIDPDDDPYYATWAKGRFTISRDNSKNTLYLQMNSLRAEDTATYYCAGGDHNSGWGLDIWGQGTTVTVSS | 1.47e+06

Could you now consider this next binder?
Need kon of 509-maxII (scFv, VH tied by name; also called Protein Nr) scFv: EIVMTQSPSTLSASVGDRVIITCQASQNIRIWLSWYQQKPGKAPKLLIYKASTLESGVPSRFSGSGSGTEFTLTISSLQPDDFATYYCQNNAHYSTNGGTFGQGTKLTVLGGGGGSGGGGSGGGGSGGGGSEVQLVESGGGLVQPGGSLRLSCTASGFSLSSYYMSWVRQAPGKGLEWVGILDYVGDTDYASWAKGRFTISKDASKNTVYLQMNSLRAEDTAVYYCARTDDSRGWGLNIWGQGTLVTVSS , thanks.
3.47e+07
